molecular target: MERTK (UniProt Q12866); assay: phosphorylation enrichment, bacterial display (enrichment ratio); higher = better substrate or ligand; peptides without Tyr show the background;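 further: 11-residue human phosphosite peptides and single-mutation variants displayed on the E. coli surface, counted by deep sequencing, each peptide's frequency after selection divided by its frequency in the unselected input library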;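 further: frequency after pTyr selection over input frequency; kinase dosed for 20-30% of maximal phosphorylation in three min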
Sequence (Q12866 whole entry, looked up): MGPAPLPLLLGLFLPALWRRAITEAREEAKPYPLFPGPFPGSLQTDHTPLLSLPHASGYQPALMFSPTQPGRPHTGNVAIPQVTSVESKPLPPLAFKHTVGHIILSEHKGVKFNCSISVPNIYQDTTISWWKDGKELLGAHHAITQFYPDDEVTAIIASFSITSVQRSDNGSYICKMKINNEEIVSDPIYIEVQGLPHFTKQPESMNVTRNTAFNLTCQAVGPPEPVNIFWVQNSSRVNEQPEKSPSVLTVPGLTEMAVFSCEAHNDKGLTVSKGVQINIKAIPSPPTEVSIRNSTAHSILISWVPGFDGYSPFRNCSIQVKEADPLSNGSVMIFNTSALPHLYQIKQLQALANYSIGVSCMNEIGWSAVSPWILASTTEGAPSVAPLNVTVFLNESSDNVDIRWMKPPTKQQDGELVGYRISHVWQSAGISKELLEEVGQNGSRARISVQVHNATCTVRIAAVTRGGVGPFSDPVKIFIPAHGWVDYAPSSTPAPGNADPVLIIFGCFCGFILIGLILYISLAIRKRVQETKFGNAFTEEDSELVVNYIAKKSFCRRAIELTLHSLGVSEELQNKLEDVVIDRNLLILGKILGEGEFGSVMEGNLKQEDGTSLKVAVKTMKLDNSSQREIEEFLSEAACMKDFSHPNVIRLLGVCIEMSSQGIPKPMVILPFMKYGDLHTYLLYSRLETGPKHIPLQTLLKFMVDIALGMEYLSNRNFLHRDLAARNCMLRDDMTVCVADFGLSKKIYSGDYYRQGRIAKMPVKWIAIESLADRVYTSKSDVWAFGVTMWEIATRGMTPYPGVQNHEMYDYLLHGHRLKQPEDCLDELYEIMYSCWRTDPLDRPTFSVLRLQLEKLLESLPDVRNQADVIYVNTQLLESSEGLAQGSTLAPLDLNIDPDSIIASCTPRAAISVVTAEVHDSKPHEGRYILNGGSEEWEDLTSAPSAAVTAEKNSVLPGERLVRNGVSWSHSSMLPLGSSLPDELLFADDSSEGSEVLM
measured-property: phosphorylation enrichment
# respond with the number and nothing more

Recorded phosphorylation enrichment for LGGAMYFLEAE [PKHD1_Y452_YF] on MERTK (UniProt Q12866) was 0.709

Recorded phosphorylation enrichment for ATPSRYMTFLH [DYNC2H1_Y2872] on MERTK (UniProt Q12866) was 0.396

Recorded phosphorylation enrichment for RVNSAYQDKVS [ACAN_Y100] on MERTK (UniProt Q12866) was 0.498

Recorded phosphorylation enrichment for TEAEPYYCSLR [NPHS1_Y1138_R1140C] on MERTK (UniProt Q12866) was 2.78

Recorded phosphorylation enrichment for LKEIRYPPYTD [ALDH3B2_Y362_H361R] on MERTK (UniProt Q12866) was 0.518

Recorded phosphorylation enrichment for DTQNSYWCATS [TSC1_Y304_G305W] on MERTK (UniProt Q12866) was 1.36

Recorded phosphorylation enrichment for YRIDHYLGKEM [G6PD_Y202] on MERTK (UniProt Q12866) was 0.508

Recorded phosphorylation enrichment for NGSFLYVIISQ [LRP1B_Y1988_R1987L] on MERTK (UniProt Q12866) was 0.468

Recorded phosphorylation enrichment for IHADICRWFNI [MARS1_Y344_Y344C] on MERTK (UniProt Q12866) was 0.356

Recorded phosphorylation enrichment for QGIIIYRAAYF [SLC25A4_Y187] on MERTK (UniProt Q12866) was 0.541

Recorded phosphorylation enrichment for HFGNNYRDVLQ [MACC1_Y803_YF] on MERTK (UniProt Q12866) was 0.64

Recorded phosphorylation enrichment for QTENKYDSVSG [EIF2AK3_Y565] on MERTK (UniProt Q12866) was 0.615

Recorded phosphorylation enrichment for IVTLKYPIEHG [ACTB_Y69_L65V] on MERTK (UniProt Q12866) was 0.481

Recorded phosphorylation enrichment for QPAGNYSLSSV [ARFGAP3_Y473] on MERTK (UniProt Q12866) was 0.93

Recorded phosphorylation enrichment for LKDEDYLKDTV [HAUS3_Y582_I586T] on MERTK (UniProt Q12866) was 1.04

Recorded phosphorylation enrichment for ESPGLYGFLNV [BCR_Y910] on MERTK (UniProt Q12866) was 1.05

Recorded phosphorylation enrichment for HGTKVYIDPFT [EPHB4_Y590] on MERTK (UniProt Q12866) was 1.03

Recorded phosphorylation enrichment for SVETPYVSVTF [NDRG2_Y47_G48V] on MERTK (UniProt Q12866) was 0.47

Recorded phosphorylation enrichment for PFAEPYADFGG [APBA1_Y187_S184A_YF] on MERTK (UniProt Q12866) was 0.571

Recorded phosphorylation enrichment for KDHPDYKFQRR [SOX10_Y171_P175R_YF] on MERTK (UniProt Q12866) was 0.389

Recorded phosphorylation enrichment for KVVNEYVTKGQ [MYH7_Y410_G407V] on MERTK (UniProt Q12866) was 0.375

Recorded phosphorylation enrichment for FGYPGYQCKHY [TIMP3_Y177_S179C] on MERTK (UniProt Q12866) was 0.704

Recorded phosphorylation enrichment for GHNDVYISEHV [GRIN2A_Y1423] on MERTK (UniProt Q12866) was 0.332

Recorded phosphorylation enrichment for ADLLVYIKALN [HPRT1_Y81_D80V] on MERTK (UniProt Q12866) was 0.349

Recorded phosphorylation enrichment for KCCCIYEKPRA [PPP1R11_Y64] on MERTK (UniProt Q12866) was 1.65

Recorded phosphorylation enrichment for HLQQSNLPRGT [TEX45_Y396_Y396N] on MERTK (UniProt Q12866) was 0.467

Recorded phosphorylation enrichment for SVGGCYEQLFV [MC4R_Y41_D37V] on MERTK (UniProt Q12866) was 0.826

Recorded phosphorylation enrichment for GSSEGYLHMVH [NIPBL_Y247_D246G] on MERTK (UniProt Q12866) was 0.419

Recorded phosphorylation enrichment for RSDSTYRMSAT [NHS_Y1532_S1531T] on MERTK (UniProt Q12866) was 0.335

Recorded phosphorylation enrichment for CTNPQYLAAGS [RABL3_Y185_R184Q] on MERTK (UniProt Q12866) was 0.424

Recorded phosphorylation enrichment for LITTLYIDFLG [KCNQ1_Y267_G269D] on MERTK (UniProt Q12866) was 0.704

Recorded phosphorylation enrichment for SPDMLYQFLKQ [RPAP3_Y567_YF] on MERTK (UniProt Q12866) was 4.98

Recorded phosphorylation enrichment for VRFMEYETQVK [TARDBP_Y155_T153M] on MERTK (UniProt Q12866) was 0.373

Recorded phosphorylation enrichment for EMFNPYFGLFE [NEDD4L_Y679_YF] on MERTK (UniProt Q12866) was 3.52

Recorded phosphorylation enrichment for VHSGTYQVTVR [MYBPC3_Y1043] on MERTK (UniProt Q12866) was 0.409

Recorded phosphorylation enrichment for AGLVQYFMEHH [PTPN11_Y80_E76G_YF] on MERTK (UniProt Q12866) was 0.456

Recorded phosphorylation enrichment for KAESWYQTKYE [KRT75_Y342_E337K] on MERTK (UniProt Q12866) was 0.433

Recorded phosphorylation enrichment for EQMLEYMGQLQ [CFAP45_Y289_E291G] on MERTK (UniProt Q12866) was 0.448

Recorded phosphorylation enrichment for RSFSPYDFQPC [TNS1_Y796_YF] on MERTK (UniProt Q12866) was 1.69

Recorded phosphorylation enrichment for KFLENYFDLKK [MMP3_Y41_YF] on MERTK (UniProt Q12866) was 0.446

Recorded phosphorylation enrichment for QDGYSYLSRQM [LDLR_Y847_P848L] on MERTK (UniProt Q12866) was 1.26

Recorded phosphorylation enrichment for RGNMYYENSYA [EGFR_Y113] on MERTK (UniProt Q12866) was 2.85

---

target: Hck (UniProt P08631); assay: phosphorylation enrichment, bacterial display (enrichment ratio); higher = better substrate or ligand; peptides without Tyr show the background
Sequence (P08631 whole entry, looked up): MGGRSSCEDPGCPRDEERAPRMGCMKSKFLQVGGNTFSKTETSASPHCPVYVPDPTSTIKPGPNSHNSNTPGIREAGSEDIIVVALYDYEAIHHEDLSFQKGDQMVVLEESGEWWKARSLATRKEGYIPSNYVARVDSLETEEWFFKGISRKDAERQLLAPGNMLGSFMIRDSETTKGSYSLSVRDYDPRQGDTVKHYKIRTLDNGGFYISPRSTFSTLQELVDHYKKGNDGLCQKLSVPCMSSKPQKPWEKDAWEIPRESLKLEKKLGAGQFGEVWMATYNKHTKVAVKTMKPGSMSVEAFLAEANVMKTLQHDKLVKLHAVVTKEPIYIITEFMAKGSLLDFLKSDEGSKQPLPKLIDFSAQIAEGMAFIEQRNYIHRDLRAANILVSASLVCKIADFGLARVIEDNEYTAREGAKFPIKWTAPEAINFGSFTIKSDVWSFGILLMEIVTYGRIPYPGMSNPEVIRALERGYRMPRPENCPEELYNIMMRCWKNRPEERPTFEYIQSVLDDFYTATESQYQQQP
measured-property: phosphorylation enrichment
# respond with the number and nothing more

Record TLNVRYESVQA [CEACAM7_Y236] , field phosphorylation enrichment: 0.487

Record WSQAMYPDLGP [STARD8_Y330_R327Q] , field phosphorylation enrichment: 0.486

Record QYQLKYSETPF [SIX6OS1_Y129] , field phosphorylation enrichment: 0.722

Record NDDDVYRSLEE [VAV2_Y142] , field phosphorylation enrichment: 0.665

Record REIHDYIKHLG [UNC13C_Y308_D304E] , field phosphorylation enrichment: 0.511

Record KFLENYFDLKK [MMP3_Y41_YF] , field phosphorylation enrichment: 0.543

Record ESMQSYDLDYP [UNC13B_Y243_D238E] , field phosphorylation enrichment: 0.615

Record LEAFQYIGESQ [MSH2_Y856_E853A] , field phosphorylation enrichment: 0.413

Record GEVLVYVEDPA [FLNA_Y319] , field phosphorylation enrichment: 0.589

Record HDRGNYVQLNM [RECQL4_Y353_R355Q] , field phosphorylation enrichment: 0.508

Record AHPIIYTIIEA [PYKtide_no-pT_2014] , field phosphorylation enrichment: 2.74

Record VKPENDRRLDI [VHL_Y175_Y175D] , field phosphorylation enrichment: 0.43

Record FRIGPYQPSVP [MATR3_Y784_N787S_YF] , field phosphorylation enrichment: 0.537

Record SVAVPYEPPEV [TP53_Y220_V217A] , field phosphorylation enrichment: 0.565

Record ADNSAYLMGLN [MYH7_Y386_K383N] , field phosphorylation enrichment: 0.603

Record LSNPAYRLLLA [DDR1_Y513] , field phosphorylation enrichment: 1.14

Record LEKRAYICAHP [ACAD9_Y611] , field phosphorylation enrichment: 0.476

Record AHPGEYGAEAL [HBA1_Y25_A22P] , field phosphorylation enrichment: 0.486

Record KTDVHYRSLGG [DYSF_Y1858] , field phosphorylation enrichment: 0.371

Record QEIATYRRLQE [KRT14_Y415_L419Q] , field phosphorylation enrichment: 0.482

Record AEEEIYGEFEA [Src_opt_1995] , field phosphorylation enrichment: 1.12

Record RELGEYPLAEF [ALDH1A3_Y492_A493P_YF] , field phosphorylation enrichment: 0.536

Record FKDYFYCWNTS [AICDA_Y146_F151S] , field phosphorylation enrichment: 0.599

Record SFPPTYRFERG [INPPL1_Y661_YF] , field phosphorylation enrichment: 0.369

Record CKLCQYYLDHL [ATRX_Y1849_Y1847C] , field phosphorylation enrichment: 0.437

Record SDGHEYIFVDR [PDGFRB_Y579_P584R_YF] , field phosphorylation enrichment: 0.398

Record IVAREYFSEAD [CAMK2A_Y106_YF] , field phosphorylation enrichment: 0.5

Record PRPAGYPSTVS [CACNA1C_Y1832] , field phosphorylation enrichment: 0.251

Record FESPRYLQVRI [FANCA_Y488_H492R] , field phosphorylation enrichment: 0.579

Record QKTGDYFDLFG [PTPN11_Y62_N58K_YF] , field phosphorylation enrichment: 0.442

Record KVKVEYDMTVP [AHNAK_Y964_G962V] , field phosphorylation enrichment: 0.485

Record APSEFYDGDHD [HDAC3_Y414_N411S] , field phosphorylation enrichment: 0.528

Record AFSLKYEQQTQ [SYTL4_Y366] , field phosphorylation enrichment: 0.535

Record KKLHEYNTQFQ [PIK3R1_Y452] , field phosphorylation enrichment: 0.367

Record RWHEGYRQTPR [CD44_Y412_K417R] , field phosphorylation enrichment: 0.345

Record KLSFSYGRALQ [ALDOB_Y302] , field phosphorylation enrichment: 0.46

Record FSNKLYFQLEQ [PDPR_Y109_YF] , field phosphorylation enrichment: 0.694

Record RGMVMYTSKDR [ZG16B_Y136] , field phosphorylation enrichment: 0.614

Record RNFDTYTAGLS [RHBDD1_Y264_YF] , field phosphorylation enrichment: 3.7

Record ERWLKYFPNEQ [HS3ST5_Y244_I247N] , field phosphorylation enrichment: 0.482

Record SRLDSYVRSLP [TRAPPC1_Y133] , field phosphorylation enrichment: 0.443

Record QQIFTYDSGIH [JUP_Y22_T19I_YF] , field phosphorylation enrichment: 0.833

Record SKAFAYVHFDS [PABPC5_Y149_G146A_YF] , field phosphorylation enrichment: 0.51

Record TGDFGYRAPGY [TNS2_Y668] , field phosphorylation enrichment: 0.376

Record RHFTGYRIELQ [INSR_Y818] , field phosphorylation enrichment: 0.401

Record FTAVGYHKHFT [NOMO1_Y1137_I1141F] , field phosphorylation enrichment: 0.426
